System: Streptococcus pyogenes SSI-9
Assay: Antibacterial activity assay of bead-derived peptides (three concentrations)
Type: cell-based
Parameters: key: +++: inhibition by the 640-fold diluted peptide solution; ++: inhibition by the 160-fold diluted solution; +: inhibition by the 40-fold diluted solution; -: no inhibition
Details: S. pyogenes, bead-derived peptide solution, three concentrations
Description: Each type of assay must be simplified and miniaturized to assess the activities of the library peptides in a 96-well format for the high-throughput screening. Next, the peptides in groups A and B were subjected to the antibacterial assay and structural determination. Three peptide concentrations were applied to evaluate the growth inhibition of S. pyogenes and determine the antibacterial activity. […] Finally, the structures of the peptides were determined. […]
Where a SMILES comes first, the peptide text is derived from it. [ ]: non-standard residue; d: D form. The star is where a group is joined. NHCH2CH2OH = OCCN*; For = O=C*

{"compound": "CC(C)C[C@@H](NC(=O)[C@H](C)NC(=O)CNC(=O)[C@@H](NC=O)C(C)C)C(=O)N[C@@H](C)C(=O)N[C@@H](C(=O)N[C@H](C(=O)N[C@H](CC(C)C)C(=O)N[C@@H](Cc1c[nH]c2ccccc12)C(=O)N[C@@H](C(=O)N[C@@H](Cc1c[nH]c2ccccc12)C(=O)N[C@H](CC(C)C)C(=O)N[C@@H](Cc1c[nH]c2ccccc12)C(=O)N[C@@H](C(=O)N[C@@H](Cc1c[nH]c2ccccc12)C(=O)NCCO)C(C)C)[C@H](C)O)C(C)C)C(C)C [compound 1253] (For-VGA[dL]A[dV]V[dL]W[dT]W[dL]W[dV]W-NHCH2CH2OH)", "tested.on": "Streptococcus pyogenes SSI-9", "antibacterial activity": "-"}
{"compound": "CC(C)C[C@@H](NC(=O)[C@H](C)NC(=O)CNC(=O)[C@@H](NC=O)C(C)C)C(=O)N[C@@H](C)C(=O)N[C@@H](C(=O)N[C@H](C(=O)N[C@@H](C(=O)N[C@@H](Cc1c[nH]c2ccccc12)C(=O)N[C@@H](C(=O)N[C@@H](Cc1c[nH]c2ccccc12)C(=O)N[C@@H](C(=O)N[C@@H](Cc1c[nH]c2ccccc12)C(=O)N[C@@H](C(=O)N[C@@H](Cc1c[nH]c2ccccc12)C(=O)NCCO)C(C)C)C(C)C)C(C)C)[C@H](C)O)C(C)C)C(C)C [compound 12429] (For-VGA[dL]A[dV]V[dT]W[dV]W[dV]W[dV]W-NHCH2CH2OH)", "tested.on": "Streptococcus pyogenes SSI-9", "antibacterial activity": "-"}
